The origin of these recorded values is ChEMBL document CHEMBL1129355.

Target: Monoamine transporters; serotonin & dopamine (Rattus norvegicus) (UniProt P31652+P23977)
Sequence (P23977 whole entry, looked up): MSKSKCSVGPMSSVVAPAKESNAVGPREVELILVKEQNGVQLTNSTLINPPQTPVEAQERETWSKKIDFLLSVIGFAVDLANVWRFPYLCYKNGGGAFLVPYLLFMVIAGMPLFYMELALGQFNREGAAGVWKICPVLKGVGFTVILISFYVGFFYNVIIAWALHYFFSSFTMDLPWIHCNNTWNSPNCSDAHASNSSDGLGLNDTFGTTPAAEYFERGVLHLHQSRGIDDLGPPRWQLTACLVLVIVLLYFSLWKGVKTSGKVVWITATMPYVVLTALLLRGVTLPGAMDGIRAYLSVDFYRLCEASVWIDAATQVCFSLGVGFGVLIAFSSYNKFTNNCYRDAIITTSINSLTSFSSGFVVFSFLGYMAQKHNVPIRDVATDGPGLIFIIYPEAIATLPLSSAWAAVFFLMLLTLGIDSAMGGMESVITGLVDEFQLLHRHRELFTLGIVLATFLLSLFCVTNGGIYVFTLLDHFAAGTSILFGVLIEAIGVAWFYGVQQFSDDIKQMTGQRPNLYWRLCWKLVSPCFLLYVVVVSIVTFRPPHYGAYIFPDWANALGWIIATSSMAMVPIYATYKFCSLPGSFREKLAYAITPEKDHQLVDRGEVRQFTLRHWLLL
Sequence (P31652 whole entry, looked up): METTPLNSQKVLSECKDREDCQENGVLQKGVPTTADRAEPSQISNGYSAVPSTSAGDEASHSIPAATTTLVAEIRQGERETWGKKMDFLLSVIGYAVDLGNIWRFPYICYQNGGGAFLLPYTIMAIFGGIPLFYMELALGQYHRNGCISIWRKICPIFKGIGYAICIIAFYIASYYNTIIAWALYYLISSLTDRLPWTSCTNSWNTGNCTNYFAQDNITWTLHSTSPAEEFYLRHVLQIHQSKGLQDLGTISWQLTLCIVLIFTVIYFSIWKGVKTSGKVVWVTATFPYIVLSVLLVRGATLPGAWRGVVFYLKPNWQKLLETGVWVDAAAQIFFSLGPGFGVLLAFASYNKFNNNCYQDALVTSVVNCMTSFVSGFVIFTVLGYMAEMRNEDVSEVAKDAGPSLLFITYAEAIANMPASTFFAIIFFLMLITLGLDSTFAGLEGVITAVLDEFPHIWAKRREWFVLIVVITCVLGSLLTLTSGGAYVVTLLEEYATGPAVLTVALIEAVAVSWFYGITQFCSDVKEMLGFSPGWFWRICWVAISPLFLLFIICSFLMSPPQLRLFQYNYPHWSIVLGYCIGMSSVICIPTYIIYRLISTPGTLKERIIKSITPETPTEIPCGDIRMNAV
Experiment: Relative affinity for dopamine and Serotonin transporters
Format: protein assay
Mark satisfied for reported Ratio of 70 or greater; mark not satisfied for anything smaller.

compound	assigned.label
CCC(=O)C1C(c2ccc(C)cc2)CC2CCC1N2C (stereo unspecified)	not satisfied
CCC(=O)C1C(c2ccc(C(CC)CC)cc2)CC2CCC1N2C (stereo unspecified)	not satisfied
CCC(=O)C1C(c2ccc(C3CCCCC3)cc2)CC2CCC1N2C (stereo unspecified)	not satisfied
C=Cc1ccc(C2CC3CCC(C2C(=O)CC)N3C)cc1 (stereo unspecified)	not satisfied
C=C(C)c1ccc(C2CC3CCC(N3)C2C(=O)CC)cc1 (stereo unspecified)	satisfied

----------
Molecular target: Monoamine transporters; serotonin & dopamine (Rattus norvegicus) (UniProt P31652+P23977)
Experiment: Relative affinity for dopamine and Serotonin transporters
Type: protein assay

compound	Ratio
C=Cc1ccc(C2CC3CCC(N3)C2C(=O)CC)cc1 (stereo unspecified)	4.7
CCC(=O)C1C2CCC(CC1c1ccc(C3CCCCC3)cc1)N2 (stereo unspecified)	5.8
CCC(=O)C1C(c2ccc3ccccc3c2)CC2CCC1N2C (stereo unspecified)	0.31
CCC(=O)C1C2CCC(CC1c1ccc(C)cc1)N2 (stereo unspecified)	0.25
CCC(=O)C1C2CCC(CC1c1ccc(C(CC)CC)cc1)N2 (stereo unspecified)	1.27
C=C(C)c1ccc(C2CC3CCC(C2C(=O)CC)N3C)cc1 (stereo unspecified)	8.8

----------
Molecular target: Sodium-dependent serotonin transporter (Rattus norvegicus)
Sequence (P31652 whole entry): as the sequence (P31652 whole entry, looked up) above
Binned Ki; ranges: low value (below 0.8 nM), medium value (0.8 nM to below 80 nM), high value (80 nM or more)

compound	assigned.label
CCC(=O)C1C(c2ccc(C(CC)CC)cc2)CC2CCC1N2C (stereo unspecified)	high value
C=C(C)c1ccc(C2CC3CCC(N3)C2C(=O)CC)cc1 (stereo unspecified)	low value
CCC(=O)C1C(c2ccc(C3CCCCC3)cc2)CC2CCC1N2C (stereo unspecified)	high value
CCC(=O)C1C2CCC(CC1c1ccc(C3CCCCC3)cc1)N2 (stereo unspecified)	high value
C=Cc1ccc(C2CC3CCC(N3)C2C(=O)CC)cc1 (stereo unspecified)	low value
CCC(=O)C1C2CCC(CC1c1ccc(C)cc1)N2 (stereo unspecified)	medium value
C=Cc1ccc(C2CC3CCC(C2C(=O)CC)N3C)cc1 (stereo unspecified)	medium value
CCC(=O)C1C2CCC(CC1c1ccc(C(C)C)cc1)N2 (stereo unspecified)	medium value
CCC(=O)C1C2CCC(CC1c1ccc(C(CC)CC)cc1)N2 (stereo unspecified)	high value
CCC(=O)C1C2CCC(CC1c1ccc3ccccc3c1)N2 (stereo unspecified)	low value

----------
Each entry below carries its recorded log10(IC50).
Target: UniProt:P23977
Assay: Displacement of [125I]RTI-55 from dopamine transporter of rat brain membranes
reported.property: log10(IC50) (log10 of the value in nM)

compound	target.of.assay	reported.property	numeric.readout
C=Cc1ccc(C2CC3CCC(C2C(=O)CC)N3C)cc1 (stereo not given)	UniProt:P23977	log10(IC50)	-0.05
CCC(=O)C1C2CCC(CC1c1ccc(C(C)C)cc1)N2 (stereo not given)	UniProt:P23977	log10(IC50)	2.73
CCC(=O)C1C2CCC(CC1c1ccc(C)cc1)N2 (stereo not given)	UniProt:P23977	log10(IC50)	0.67
C=C(C)c1ccc(C2CC3CCC(N3)C2C(=O)CC)cc1 (stereo not given)	UniProt:P23977	log10(IC50)	1.20
C=C(C)c1ccc(C2CC3CCC(C2C(=O)CC)N3C)cc1 (stereo not given)	UniProt:P23977	log10(IC50)	0.86

----------
Test system Norepinephrine transporter (Rattus norvegicus), Ki listed for each of the compounds.

compound	measurement.qualifier	Ki / nM
C=C(C)c1ccc(C2CC3CCC(C2C(=O)CC)N3C)cc1 (stereo not drawn)	=	794
CCC(=O)C1C2CCC(CC1c1ccc(C3CCCCC3)cc1)N2 (stereo not drawn)	=	4300
CCC(=O)C1C(c2ccc(C)cc2)CC2CCC1N2C (stereo not drawn)	=	160
C=Cc1ccc(C2CC3CCC(C2C(=O)CC)N3C)cc1 (stereo not drawn)	=	78
CCC(=O)C1C(c2ccc3ccccc3c2)CC2CCC1N2C (stereo not drawn)	=	2.9
C=C(C)c1ccc(C2CC3CCC(N3)C2C(=O)CC)cc1 (stereo not drawn)	=	94
CCC(=O)C1C2CCC(CC1c1ccc(C(C)C)cc1)N2 (stereo not drawn)	=	150
C=Cc1ccc(C2CC3CCC(N3)C2C(=O)CC)cc1 (stereo not drawn)	=	10.9
CCC(=O)C1C(c2ccc(C3CCCCC3)cc2)CC2CCC1N2C (stereo not drawn)	>	10000
CCC(=O)C1C2CCC(CC1c1ccc3ccccc3c1)N2 (stereo not drawn)	=	440
CCC(=O)C1C2CCC(CC1c1ccc(C)cc1)N2 (stereo not drawn)	=	5.5
CCC(=O)C1C2CCC(CC1c1ccc(C(CC)CC)cc1)N2 (stereo not drawn)	=	5100
CCC(=O)C1C(c2ccc(C(CC)CC)cc2)CC2CCC1N2C (stereo not drawn)	>	10000

----------
Target: UniProt:P23977
Test: Displacement of [125I]RTI-55 from dopamine transporter of rat brain membranes
Each entry below carries its recorded log10 of IC50.
reported.property: log10 of IC50 (log10 of the value in nM)

molecule	log10 of IC50
CCC(=O)C1C2CCC(CC1c1ccc(C3CCCCC3)cc1)N2 (stereo unspecified)	2.69
CCC(=O)C1C(c2ccc(C3CCCCC3)cc2)CC2CCC1N2C (stereo unspecified)	2.51
CCC(=O)C1C2CCC(CC1c1ccc3ccccc3c1)N2 (stereo unspecified)	1.56
CCC(=O)C1C(c2ccc(C(CC)CC)cc2)CC2CCC1N2C (stereo unspecified)	2.43
CCC(=O)C1C2CCC(CC1c1ccc(C(CC)CC)cc1)N2 (stereo unspecified)	2.28
C=Cc1ccc(C2CC3CCC(N3)C2C(=O)CC)cc1 (stereo unspecified)	0.18
